System: Staphylococcus aureus CMX 642A
observable: MIC (µg/mL)
Numbers only, in µg/mL.

molecule="CC[C@H]1OC(=O)[C@H](C)[C@@H](O[C@H]2C[C@@](C)(OC)[C@@H](O)[C@H](C)O2)[C@H](C)[C@@H](O[C@@H]2O[C@H](C)C[C@H](N(C)C)[C@H]2O)[C@](C)(O)C[C@@H](C)C(=O)[C@H](C)[C@@H](O)[C@]1(C)O [Ery. A, Erythromycin A, reference compound]" number=0.39

Exercise: Field: MIC (Staphylococcus aureus CMX 642A). Entry: CC[C@H]1OC(=O)[C@H](C)[C@@H](O[C@H]2C[C@@](C)(OC)[C@@H](O)[C@H](C)O2)[C@H](C)[C@@H](O[C@@H]2O[C@H](C)C[C@H](N(C)C)[C@H]2O)[C@](C)(OCC(C)=O)C[C@@H](C)C(=O)[C@H](C)[C@@H](O)[C@]1(C)O [Example 9]
Solution: 3.1

---

System: Staphylococcus aureus CMX 642A
Can you tell me MIC for the items I'm about to list?

Hey, can you go through the list below and give me MIC for every item?
1. CC[C@H]1OC(=O)[C@H](C)[C@@H](O[C@H]2C[C@@](C)(OC)[C@@H](O)[C@H](C)O2)[C@H](C)[C@@H](O[C@@H]2O[C@H](C)C[C@H](N(C)C)[C@H]2O)[C@](C)(OCC(O)CN=[N+]=[N-])C[C@@H](C)C(=O)[C@H](C)[C@@H](O)[C@]1(C)O (some centres unmarked)
2. CCCO[C@]1(C)C[C@@H](C)C(=O)[C@H](C)[C@@H](O)[C@](C)(O)[C@@H](CC)OC(=O)[C@H](C)[C@@H](O[C@H]2C[C@@](C)(OC)[C@@H](O)[C@H](C)O2)[C@H](C)[C@H]1O[C@@H]1O[C@H](C)C[C@H](N(C)C)[C@H]1O

Solution:
["1.56 µg/mL", "12.5 µg/mL"]

---

Test system: Staphylococcus aureus ATCC 6538P
observable: MIC (µg/mL)
Give bare numbers, in µg/mL.

Please review the entries below; each comes with its answer.
compound="CC[C@H]1OC(=O)[C@H](C)[C@@H](O[C@H]2C[C@@](C)(OC)[C@@H](O)[C@H](C)O2)[C@H](C)[C@@H](O[C@@H]2O[C@H](C)C[C@H](N(C)C)[C@H]2O)[C@](C)(OCC(O)Cn2ccnc2)C[C@@H](C)C(=O)[C@H](C)[C@@H](O)[C@]1(C)O (stereo partly shown)" uom=µg/mL number=0.78
compound="CC[C@H]1OC(=O)[C@H](C)[C@@H](O[C@H]2C[C@@](C)(OC)[C@@H](O)[C@H](C)O2)[C@H](C)[C@@H](O[C@@H]2O[C@H](C)C[C@H](N(C)C)[C@H]2O)[C@](C)(OCC(O)CO)C[C@@H](C)C(=O)[C@H](C)[C@@H](O)[C@]1(C)O (stereo partly shown)" uom=µg/mL number=1.56
compound=CC[C@H]1OC(=O)[C@H](C)[C@@H](O[C@H]2C[C@@](C)(OC)[C@@H](O)[C@H](C)O2)[C@H](C)[C@@H](O[C@@H]2O[C@H](C)C[C@H](N(C)C)[C@H]2O)[C@](C)(OCC=NO)C[C@@H](C)C(=O)[C@H](C)[C@@H](O)[C@]1(C)O uom=µg/mL number=0.39

List reported MIC for each of these compounds:
1. CC[C@H]1OC(=O)[C@H](C)[C@@H](O[C@H]2C[C@@](C)(OC)[C@@H](O)[C@H](C)O2)[C@H](C)[C@@H](O[C@@H]2O[C@H](C)C[C@H](N(C)C)[C@H]2O)[C@](C)(OCC(O)CNCc2ccccc2)C[C@@H](C)C(=O)[C@H](C)[C@@H](O)[C@]1(C)O (stereo partly shown)
2. CC[C@H]1OC(=O)[C@H](C)[C@@H](O[C@H]2C[C@@](C)(OC)[C@@H](O)[C@H](C)O2)[C@H](C)[C@@H](O[C@@H]2O[C@H](C)C[C@H](N(C)C)[C@H]2O)[C@](C)(OCC(O)CN2CCOCC2)C[C@@H](C)C(=O)[C@H](C)[C@@H](O)[C@]1(C)O (stereo partly shown)

Solution:
1. 0.39
2. 0.78

Quick batch: MIC for everything below.
1. CC[C@H]1OC(=O)[C@H](C)[C@@H](O[C@H]2C[C@@](C)(OC)[C@@H](O)[C@H](C)O2)[C@H](C)[C@@H](O[C@@H]2O[C@H](C)C[C@H](N(C)C)[C@H]2O)[C@](C)(OCC(O)CN=[N+]=[N-])C[C@@H](C)C(=O)[C@H](C)[C@@H](O)[C@]1(C)O (stereo partly shown)
2. C#CCO[C@]1(C)C[C@@H](C)C(=O)[C@H](C)[C@@H](O)[C@](C)(O)[C@@H](CC)OC(=O)[C@H](C)[C@@H](O[C@H]2C[C@@](C)(OC)[C@@H](O)[C@H](C)O2)[C@H](C)[C@H]1O[C@@H]1O[C@H](C)C[C@H](N(C)C)[C@H]1O

Solution:
1: 0.78; 2: 0.2

---

Tested on: Staphylococcus epidermidis 3519
Please go through the items and note down their MIC.

Okay, here is my list. What is MIC for each of these?
1. CC[C@H]1OC(=O)[C@H](C)[C@@H](O[C@H]2C[C@@](C)(OC)[C@@H](O)[C@H](C)O2)[C@H](C)[C@@H](O[C@@H]2O[C@H](C)C[C@H](N(C)C)[C@H]2O)[C@](C)(OCC=NO)C[C@@H](C)C(=O)[C@H](C)[C@@H](O)[C@]1(C)O [Example 12]
2. CC[C@H]1OC(=O)[C@H](C)[C@@H](O[C@H]2C[C@@](C)(OC)[C@@H](O)[C@H](C)O2)[C@H](C)[C@@H](O[C@@H]2O[C@H](C)C[C@H](N(C)C)[C@H]2O)[C@](C)(OCC(O)CO)C[C@@H](C)C(=O)[C@H](C)[C@@H](O)[C@]1(C)O (stereo partly shown) [Example 3]

Solution:
1: 0.39 µg/mL; 2: 0.78 µg/mL

Batch request: MIC for each of the following compounds.
1. CC[C@H]1OC(=O)[C@H](C)[C@@H](O[C@H]2C[C@@](C)(OC)[C@@H](O)[C@H](C)O2)[C@H](C)[C@@H](O[C@@H]2O[C@H](C)C[C@H](N(C)C)[C@H]2O)[C@](C)(O)C[C@@H](C)C(=O)[C@H](C)[C@@H](O)[C@]1(C)O [Ery. A, Erythromycin A, reference compound]
2. CC[C@H]1OC(=O)[C@H](C)[C@@H](O[C@H]2C[C@@](C)(OC)[C@@H](O)[C@H](C)O2)[C@H](C)[C@@H](O[C@@H]2O[C@H](C)C[C@H](N(C)C)[C@H]2O)[C@](C)(OCC=O)C[C@@H](C)C(=O)[C@H](C)[C@@H](O)[C@]1(C)O [Example 8]
3. CCCO[C@]1(C)C[C@@H](C)C(=O)[C@H](C)[C@@H](O)[C@](C)(O)[C@@H](CC)OC(=O)[C@H](C)[C@@H](O[C@H]2C[C@@](C)(OC)[C@@H](O)[C@H](C)O2)[C@H](C)[C@H]1O[C@@H]1O[C@H](C)C[C@H](N(C)C)[C@H]1O [Example 2]
4. C#CCO[C@]1(C)C[C@@H](C)C(=O)[C@H](C)[C@@H](O)[C@](C)(O)[C@@H](CC)OC(=O)[C@H](C)[C@@H](O[C@H]2C[C@@](C)(OC)[C@@H](O)[C@H](C)O2)[C@H](C)[C@H]1O[C@@H]1O[C@H](C)C[C@H](N(C)C)[C@H]1O [Example 10]
5. CC[C@H]1OC(=O)[C@H](C)[C@@H](O[C@H]2C[C@@](C)(OC)[C@@H](O)[C@H](C)O2)[C@H](C)[C@@H](O[C@@H]2O[C@H](C)C[C@H](N(C)C)[C@H]2O)[C@](C)(OCC(O)CNCc2ccccc2)C[C@@H](C)C(=O)[C@H](C)[C@@H](O)[C@]1(C)O (stereo partly shown) [Example 7]

Solution:
1: 0.39 µg/mL; 2: 0.78 µg/mL; 3: 1.56 µg/mL; 4: 0.2 µg/mL; 5: 0.39 µg/mL

---

Tested on: Pseudomonas capacia 2961
assay details: In vitro assay of antibacterial activity (agar dilution MIC)
Type: cell-based
experimental parameters: BHI agar, 35-37 °C, 20 to 24 hours, in µg/mL (unit assumed)
observable: MIC

compound="CC[C@H]1OC(=O)[C@H](C)[C@@H](O[C@H]2C[C@@](C)(OC)[C@@H](O)[C@H](C)O2)[C@H](C)[C@@H](O[C@@H]2O[C@H](C)C[C@H](N(C)C)[C@H]2O)[C@](C)(OCC(O)CNCc2ccccc2)C[C@@H](C)C(=O)[C@H](C)[C@@H](O)[C@]1(C)O (stereo partly shown)" result="> 100"

Look up MIC for the entries below, preserving their order.
1. CC[C@H]1OC(=O)[C@H](C)[C@@H](O[C@H]2C[C@@](C)(OC)[C@@H](O)[C@H](C)O2)[C@H](C)[C@@H](O[C@@H]2O[C@H](C)C[C@H](N(C)C)[C@H]2O)[C@](C)(O)C[C@@H](C)C(=O)[C@H](C)[C@@H](O)[C@]1(C)O [Ery. A, Erythromycin A, reference compound]
2. CCCO[C@]1(C)C[C@@H](C)C(=O)[C@H](C)[C@@H](O)[C@](C)(O)[C@@H](CC)OC(=O)[C@H](C)[C@@H](O[C@H]2C[C@@](C)(OC)[C@@H](O)[C@H](C)O2)[C@H](C)[C@H]1O[C@@H]1O[C@H](C)C[C@H](N(C)C)[C@H]1O
3. C#CCO[C@]1(C)C[C@@H](C)C(=O)[C@H](C)[C@@H](O)[C@](C)(O)[C@@H](CC)OC(=O)[C@H](C)[C@@H](O[C@H]2C[C@@](C)(OC)[C@@H](O)[C@H](C)O2)[C@H](C)[C@H]1O[C@@H]1O[C@H](C)C[C@H](N(C)C)[C@H]1O
4. CC[C@H]1OC(=O)[C@H](C)[C@@H](O[C@H]2C[C@@](C)(OC)[C@@H](O)[C@H](C)O2)[C@H](C)[C@@H](O[C@@H]2O[C@H](C)C[C@H](N(C)C)[C@H]2O)[C@](C)(OCC(C)=O)C[C@@H](C)C(=O)[C@H](C)[C@@H](O)[C@]1(C)O
5. CC[C@H]1OC(=O)[C@H](C)[C@@H](O[C@H]2C[C@@](C)(OC)[C@@H](O)[C@H](C)O2)[C@H](C)[C@@H](O[C@@H]2O[C@H](C)C[C@H](N(C)C)[C@H]2O)[C@](C)(OCC(O)CN2CCOCC2)C[C@@H](C)C(=O)[C@H](C)[C@@H](O)[C@]1(C)O (stereo partly shown)

Solution:
1: > 100; 2: 50; 3: >100; 4: > 100; 5: > 100

Exercise: Query (compound): `CC[C@H]1OC(=O)[C@H](C)[C@@H](O[C@H]2C[C@@](C)(OC)[C@@H](O)[C@H](C)O2)[C@H](C)[C@@H](O[C@@H]2O[C@H](C)C[C@H](N(C)C)[C@H]2O)[C@](C)(OCC=NO)C[C@@H](C)C(=O)[C@H](C)[C@@H](O)[C@]1(C)O` ; field requested: MIC
Solution: > 100
